# merged literature set: IC50 with HPK1 (Homo sapiens (Human))

Some compounds with recorded IC50:
[
  {
    "COMPOUND": "CC(C)(O)c1ccc(F)c(-c2cc(Nc3ccc(N4CCC(O)CC4)cn3)c3c(=O)[nH]ccc3n2)c1",
    "IC50": "100 to 1000 nM"
  },
  {
    "COMPOUND": "COc1cc2c(cc1Nc1ncc(C(N)=O)c(NC(C)c3ccccc3C(F)(F)F)n1)CN(C)CC2 (stereo not shown)",
    "IC50": "1.43 nM"
  },
  {
    "COMPOUND": "Cc1ccc2c(-c3ccc(Nc4ccc(N5CCN(C)CC5)cn4)c4c3CNC4=O)c[nH]c2n1",
    "IC50": "< 100 nM"
  },
  {
    "COMPOUND": "CC1(C)CN(c2c(NC(=O)c3ccc(=O)n(-c4c(F)cccc4F)n3)ccc3nn(C(C)(C)C)cc23)C[C@H]1N",
    "IC50": "< 100 nM"
  },
  {
    "COMPOUND": "O=C1NCc2c(-c3cnc4cc(F)ccn34)ncc(Nc3ccc(N4CCC(O)CC4)cn3)c21",
    "IC50": "< 100 nM"
  },
  {
    "COMPOUND": "CNC(=O)C1CCc2cc(Nc3ncc4cc(F)c(-c5cnc6c(c5C)NCCO6)cc4n3)ccc21 (single isomer, unassigned)",
    "IC50": "1.17 nM"
  }
]

Let us examine a further case.
[ask] What IC50 value was documented for this compound, CCn1ncc2c(N3CC[C@@H](N)C3)c(NC(=O)c3ccc(=O)n(-c4c(F)cccc4F)n3)ccc21 ?
[reply] < 100 nM
